Measured values drawn from patent US20070202045A1 for this set.

ASSAY_SYSTEM: T1, rat albumin (rat, UniProt P02770 25-608)
T1 construct: bought (Sigma); also called rat SA; RSA
T1 sequence (P02770 25-608 limits assumed): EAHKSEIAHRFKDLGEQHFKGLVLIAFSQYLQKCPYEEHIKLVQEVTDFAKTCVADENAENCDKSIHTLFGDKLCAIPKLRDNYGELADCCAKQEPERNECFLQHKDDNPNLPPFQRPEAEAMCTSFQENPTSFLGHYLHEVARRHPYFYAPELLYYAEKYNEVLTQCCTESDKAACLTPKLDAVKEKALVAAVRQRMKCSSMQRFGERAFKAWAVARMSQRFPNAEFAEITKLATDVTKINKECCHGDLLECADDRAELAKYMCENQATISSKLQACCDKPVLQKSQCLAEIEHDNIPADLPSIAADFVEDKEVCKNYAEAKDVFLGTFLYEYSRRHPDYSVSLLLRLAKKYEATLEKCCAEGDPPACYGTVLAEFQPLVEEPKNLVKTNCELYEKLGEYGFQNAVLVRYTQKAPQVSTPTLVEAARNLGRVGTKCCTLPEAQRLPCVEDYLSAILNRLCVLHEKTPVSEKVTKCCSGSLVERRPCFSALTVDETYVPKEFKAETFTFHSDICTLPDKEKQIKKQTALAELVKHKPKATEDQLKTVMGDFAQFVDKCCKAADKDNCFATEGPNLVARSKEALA
PROTOCOL_DESCRIPTION: SA08b competition ELISA
pIC50: −log10 of the molar value. Bridges are numbered along the chain shown (N, C = ends). Where no end group is shown, it is not given here.
Listed here are binders together with their documented pIC50.

[
  {
    "BINDER": "Ac-EDICLPRWGCLWEDD-NH2 (disulfide 4-10 (inferred), synthetic; disulfide oxidised) [SA09]",
    "pIC50": 6.59
  },
  {
    "BINDER": "Ac-QGLIGDICLPRWGCLWGDSVK-NH2 (disulfide 8-14 (inferred), synthetic; disulfide oxidised) [SA08]",
    "pIC50": 7.17
  },
  {
    "BINDER": "QRLMEDICLPRWGCLWEDDF-NH2 (disulfide 8-14, synthetic; disulfide oxidised) [SA06]",
    "pIC50": 7.17
  },
  {
    "BINDER": "Ac-RLMEDICLARWGCLWEDD-NH2 (disulfide 7-13 (inferred), synthetic; disulfide oxidised) [SA13]",
    "pIC50": 5.61
  },
  {
    "BINDER": "Ac-MEDICLPRWGCLWED-NH2 (disulfide 5-11 (inferred), synthetic; disulfide oxidised) [SA12]",
    "pIC50": 6.69
  },
  {
    "BINDER": "QGLIGDICLPRWGCLWGDSV-NH2 (disulfide 8-14 (inferred), synthetic; disulfide oxidised; printed ...GDSV here) [SA07]",
    "pIC50": 7.46
  },
  {
    "BINDER": "Ac-RLMEDICLPRWGCLWEDD-NH2 (disulfide 7-13 (inferred), synthetic; disulfide oxidised) [SA10]",
    "pIC50": 7.11
  }
]
